Tested on: CEM-SS cells
Assay: cytotoxicity on non-infected cells (MTT test)
Assay type: cell-based
Settings: Table 3; non-infected cells, MTT, 5 days
property measured: CC50

1) CCOC(=O)c1c(Sc2cc(C)cc(C)c2)c(CC)c(C)[nH]c1=O [Compound 15] ... > 10 µM
2) Cc1cc(C)cc(Sc2c(C)cnc(O)c2[N+](=O)[O-])c1 [Compound 7a] ... > 10 µM
3) CC(=O)Nc1c(Sc2cc(C)cc(C)c2)c(C)c[nH]c1=O [Compound 11b] ... > 100 µM
4) Cc1cc(C)cc(Sc2c(C)cnc(O)c2N)c1 [Compound 8a] ... > 10 µM
5) CCc1c(C)nc(O)c(NC(C)=O)c1Sc1cc(C)cc(C)c1 [Compound 11g] ... > 100 µM
6) Cc1cc(C)cc(Sc2c([N+](=O)[O-])c(O)nc3ccccc23)c1 [Compound 7f] ... > 10 µM
7) CCc1c(C)[nH]c(=O)c([N+](=O)[O-])c1Sc1cc(C)cc(C)c1 [Compound 7c] ... > 10 µM
8) CCc1cnc(O)c([N+](=O)[O-])c1Sc1cc(C)cc(C)c1 [Compound 7b] ... > 10 µM
9) CCc1cnc(O)c(N)c1Sc1cc(C)cc(C)c1 [Compound 8b] ... > 10 µM
10) CCc1c(C)nc(O)c(N)c1Sc1cc(C)cc(C)c1 [Compound 8c] ... > 10 µM
11) Cc1cc(C)cc(Sc2c(N)c(O)nc3ccccc23)c1 [Compound 8f] ... 8.2 µM
